B1: LOXL2 (parent)
chain: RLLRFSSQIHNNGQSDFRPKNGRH

variants of: B1; assay: protein stability index of a GFP-peptide fusion (GPS, HEK-293T) (PSI 1-6); higher = more stable; conditions: c terminus: a fixed tail appended;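 also: lentivirally expressed fusions sorted by FACS into six bins by GFP to DsRed ratio, PSI derived from sequencing read proportions per bin multiplied by bin number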
metric: protein stability index
Give bare numbers.

Provide reported protein stability index for each item, in the same order as listed.
1. D16P
2. R23N

Response line:
1: 2.11; 2: 3.03

Go through the items and report each one's protein stability index.
1. F5W
2. P19A

Response line:
1: 2.15; 2: 2.67

Provide each entry's protein stability index from the list below.
1. Q14H
2. K20G
3. L3D
4. N11E
5. R18H
6. R23V
7. G13D

Response line:
1: 2.59; 2: 2.79; 3: 3.98; 4: 2.86; 5: 2.45; 6: 2.41; 7: 3.19

For every item in the list below, what is its measured protein stability index?
1. N12L
2. H10D
3. S7K
4. S6M

Response line:
1: 2.15; 2: 3.68; 3: 2.21; 4: 2.51

For every item below, please supply its protein stability index.
1. G22S
2. H10Y
3. G22K
4. H10K
5. I9Q

Response line:
[3.02, 1.87, 2.62, 2.8, 3.14]

Below are 3 variants. Give each one its protein stability index.
1. R4H
2. R18A
3. S15R

Response line:
1: 2.74; 2: 3.21; 3: 2.55

// each variant listed below needs its protein stability index
1. I9W
2. G13Q
3. H10G
4. L2G
5. N12F
6. H10N

Response line:
1. 2.74
2. 3.2
3. 2.57
4. 4.6
5. 1.74
6. 3.06
